compounds and their reported EC50
Molecular target: Oxytocin receptor (Homo sapiens, UniProt P30559)
Sequence (P30559 whole entry): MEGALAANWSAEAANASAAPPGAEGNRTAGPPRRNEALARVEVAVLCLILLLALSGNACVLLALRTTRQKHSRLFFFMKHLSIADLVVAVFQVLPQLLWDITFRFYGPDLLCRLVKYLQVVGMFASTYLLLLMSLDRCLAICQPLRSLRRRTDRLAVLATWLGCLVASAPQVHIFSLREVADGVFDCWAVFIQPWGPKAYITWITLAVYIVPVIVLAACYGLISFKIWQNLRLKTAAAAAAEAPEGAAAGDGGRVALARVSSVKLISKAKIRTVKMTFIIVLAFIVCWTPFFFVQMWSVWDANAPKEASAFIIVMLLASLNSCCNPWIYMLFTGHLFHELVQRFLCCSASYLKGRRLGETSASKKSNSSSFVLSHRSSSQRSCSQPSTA
Assay: Agonist activity at human OTR expressed in CHO cells assessed as increase in calcium flux after 60 to 120 mins by fluo-4 dye based FLIPR assay
*1 amine or outer side, *2 acyl side, *3 side chain or, on linkers, in order; H or OH if unused. Where a SMILES comes first, the peptide text is derived from it. Bridges are numbered along the chain shown (N, C = ends). [ ]: non-standard residue; d: D form. The star is where a group is joined. X3 = c1ccc(OC[C@@H]2CCCN2*)cc1; X5 = c1ccc(NC[C@@H]2CCCN2*)cc1; X8 = c1ccc(CC[C@@H]2CCCN2*)cc1; Cysteamide = C(CS[*:3])N[*:1]; X1 = c1ccc([C@@H]2CCCN2*)nc1; X6 = Cc1nnc([C@@H]2CCCN2*)o1; X9 = C1CCN(C2CCN(*)CC2)C1; Pyrrolidide = C1CCN(*)C1; X4 = COC[C@@H]1CCCN1*; X10 = CN1CCCN(*)CC1; X2 = C[C@H]1CCCN1*; X7 = CC(C)CCN(C)*; Mpa = O=C(O)CCS

compound	units text	EC50
CC[C@H](C)[C@@H]1NC(=O)[C@H](Cc2ccc(O)cc2)NC(=O)CCSSCCNC(=O)[C@H](CC(N)=O)NC(=O)[C@H](CCC(N)=O)NC1=O ([Mpa]YIQN-Cysteamide; disulfide 1-C)	nM	28
CC[C@H](C)[C@@H]1NC(=O)[C@H](Cc2ccc(O)cc2)NC(=O)CCSSC[C@@H](C(=O)N2CCC[C@H]2COC)NC(=O)[C@H](CC(N)=O)NC(=O)[C@H](CCC(N)=O)NC1=O ([Mpa]YIQNC-X4; disulfide 1-6)	nM	0.44
CC[C@H](C)[C@@H]1NC(=O)[C@H](Cc2ccc(O)cc2)NC(=O)CCSSC[C@@H](C(=O)N2CCC[C@H]2COc2ccccc2)NC(=O)[C@H](CC(N)=O)NC(=O)[C@H](CCC(N)=O)NC1=O ([Mpa]YIQNC-X3; disulfide 1-6)	nM	194
CC[C@H](C)[C@@H]1NC(=O)[C@H](Cc2ccc(O)cc2)NC(=O)CCSSC[C@@H](C(=O)N2CCC[C@H]2C(N)=O)NC(=O)[C@H](CC(N)=O)NC(=O)[C@H](CCC(N)=O)NC1=O	nM	1.3
CC[C@H](C)[C@@H]1NC(=O)[C@H](Cc2ccc(O)cc2)NC(=O)CCSSC[C@@H](C(=O)N2CCC[C@H]2C(=O)N(C)CCC(C)C)NC(=O)[C@H](CC(N)=O)NC(=O)[C@H](CCC(N)=O)NC1=O ([Mpa]YIQNCP-X7; disulfide 1-6)	nM	1.8
CC[C@H](C)[C@@H]1NC(=O)[C@H](Cc2ccc(O)cc2)NC(=O)CCSSC[C@@H](C(=O)N2CCC[C@H]2CNc2ccccc2)NC(=O)[C@H](CC(N)=O)NC(=O)[C@H](CCC(N)=O)NC1=O ([Mpa]YIQNC-X5; disulfide 1-6)	nM	0.77
CC[C@H](C)[C@@H]1NC(=O)[C@H](Cc2ccc(O)cc2)NC(=O)CCSSC[C@@H](C(=O)N2CCC[C@H]2C(=O)N[C@@H](CC(C)C)C(N)=O)NC(=O)[C@H](CC(N)=O)NC(=O)[C@H](CCC(N)=O)NC1=O	nM	1.8
CC[C@H](C)[C@@H]1NC(=O)[C@H](Cc2ccc(O)cc2)NC(=O)CCSSC[C@@H](C(=O)N2CCC[C@H]2C(=O)N2CCC(N3CCCC3)CC2)NC(=O)[C@H](CC(N)=O)NC(=O)[C@H](CCC(N)=O)NC1=O ([Mpa]YIQNCP-X9; disulfide 1-6)	nM	6.8
CC[C@H](C)[C@@H]1NC(=O)[C@H](Cc2ccc(O)cc2)NC(=O)CCSSC[C@@H](C(=O)N2CCC[C@H]2c2nnc(C)o2)NC(=O)[C@H](CC(N)=O)NC(=O)[C@H](CCC(N)=O)NC1=O ([Mpa]YIQNC-X6; disulfide 1-6)	nM	0.6
CC[C@H](C)[C@@H]1NC(=O)[C@H](Cc2ccc(O)cc2)NC(=O)CCSSC[C@@H](C(N)=O)NC(=O)[C@H](CC(N)=O)NC(=O)[C@H](CCC(N)=O)NC1=O	nM	5.4
CC[C@H](C)[C@@H]1NC(=O)[C@H](Cc2ccc(O)cc2)NC(=O)CCSSC[C@@H](C(=O)N2CCC[C@H]2CCc2ccccc2)NC(=O)[C@H](CC(N)=O)NC(=O)[C@H](CCC(N)=O)NC1=O ([Mpa]YIQNC-X8; disulfide 1-6)	nM	5.2
CC[C@H](C)[C@@H]1NC(=O)[C@H](Cc2ccc(O)cc2)NC(=O)CCSSC[C@@H](C(=O)N2CCC[C@H]2c2ccccn2)NC(=O)[C@H](CC(N)=O)NC(=O)[C@H](CCC(N)=O)NC1=O ([Mpa]YIQNC-X1; disulfide 1-6)	nM	0.83
CC[C@H](C)[C@@H]1NC(=O)[C@H](Cc2ccc(O)cc2)NC(=O)CCSSC[C@@H](C(=O)N2CCCC2)NC(=O)[C@H](CC(N)=O)NC(=O)[C@H](CCC(N)=O)NC1=O ([Mpa]YIQNC-Pyrrolidide; disulfide 1-6)	nM	0.51
CC[C@H](C)[C@@H]1NC(=O)[C@H](Cc2ccc(O)cc2)NC(=O)CCSSC[C@@H](C(=O)N2CCC[C@@H]2C)NC(=O)[C@H](CC(N)=O)NC(=O)[C@H](CCC(N)=O)NC1=O ([Mpa]YIQNC-X2; disulfide 1-6)	nM	0.6
CC[C@H](C)[C@@H]1NC(=O)[C@H](Cc2ccc(O)cc2)NC(=O)CCSSC[C@@H](C(=O)N2CCC[C@H]2C(=O)N2CCCN(C)CC2)NC(=O)[C@H](CC(N)=O)NC(=O)[C@H](CCC(N)=O)NC1=O ([Mpa]YIQNCP-X10; disulfide 1-6)	nM	3.6
